target: human SPHK-2 (Homo sapiens); construct: expressed in transfected cells; host or cells: HEK-293 (cytoplasmic fraction); assay: Phosphorylation of fluorescent labeled sphingosines by SPHK-2 ([γ-32P]ATP, TLC); type: biochemical; conditions: 20 μM substrate, 1 mM ATP, 30°, cytoplasmic fraction of HEK-293 cells overexpressing human SPHK-2; sphingosine = 1
Sequence (Q9NRA0 whole entry): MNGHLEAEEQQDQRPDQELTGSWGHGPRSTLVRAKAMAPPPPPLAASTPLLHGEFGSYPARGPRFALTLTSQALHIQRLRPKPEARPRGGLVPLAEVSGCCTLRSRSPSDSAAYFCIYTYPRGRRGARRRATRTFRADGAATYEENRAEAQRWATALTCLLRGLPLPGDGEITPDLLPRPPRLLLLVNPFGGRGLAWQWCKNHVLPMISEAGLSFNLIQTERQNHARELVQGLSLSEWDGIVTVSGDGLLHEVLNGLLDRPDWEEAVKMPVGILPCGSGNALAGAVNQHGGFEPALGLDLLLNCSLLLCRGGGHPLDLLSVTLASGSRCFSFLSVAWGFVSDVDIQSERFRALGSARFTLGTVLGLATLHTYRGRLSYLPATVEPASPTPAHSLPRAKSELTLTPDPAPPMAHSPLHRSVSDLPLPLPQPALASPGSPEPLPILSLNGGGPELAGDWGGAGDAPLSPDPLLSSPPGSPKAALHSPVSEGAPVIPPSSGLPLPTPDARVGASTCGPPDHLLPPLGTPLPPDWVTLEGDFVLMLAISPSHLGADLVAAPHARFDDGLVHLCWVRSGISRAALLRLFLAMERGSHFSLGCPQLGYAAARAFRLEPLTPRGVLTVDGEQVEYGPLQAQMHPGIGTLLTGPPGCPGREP
This section presents molecules with their documented rate of phosphorylation (phosphate conversion rate) relative to sphingosine (=1), SPHK-2 values.
Please give only the number in your answer, with no unit.

Solved entries (count: 3):
1. N[C@@H](CO)[C@H](O)/C=C/CCCCCCCCCCNC(=O)c1cc2ccc3cccc4ccc(c1)c2c34 | 0.59
2. CN(C)c1cccc2c(S(=O)(=O)NCCCCCCCCCC/C=C/[C@@H](O)[C@@H](N)CO)cccc12 | 0.026
3. N[C@@H](CO)[C@H](O)/C=C/CCCOC(=O)CCCCCCCCCc1cc2ccc3cccc4ccc(c1)c2c34 | 0.065

Request: Give human SPHK-2 (Homo sapiens) rate of phosphorylation (phosphate conversion rate) relative to sphingosine (=1), SPHK-2 for N[C@@H](CO)[C@H](O)/C=C/CCCCCCCCCCOC(=O)c1cc2ccc3cccc4ccc(c1)c2c34
Result: 1.25

Request: Give human SPHK-2 (Homo sapiens) rate of phosphorylation (phosphate conversion rate) relative to sphingosine (=1), SPHK-2 for N[C@@H](CO)[C@H](O)/C=C/CCCOC(=O)CCCc1cc2ccc3cccc4ccc(c1)c2c34
Result: 0.14

Request: Give human SPHK-2 (Homo sapiens) rate of phosphorylation (phosphate conversion rate) relative to sphingosine (=1), SPHK-2 for N[C@@H](CO)[C@H](O)/C=C/CCCOC(=O)CCCCCc1cc2ccc3cccc4ccc(c1)c2c34
Result: 0.83

Request: Give human SPHK-2 (Homo sapiens) rate of phosphorylation (phosphate conversion rate) relative to sphingosine (=1), SPHK-2 for N[C@@H](CO)[C@H](O)/C=C/CCCCCCCCCCNS(=O)(=O)c1cc2ccc3cccc4ccc(c1)c2c34
Result: 0.83
